Assay: Safety (body weight, tolerance) in the HPAF-II model
Assay type: in vivo, Balb/c nude female mice
Conditions: Group 2, 60 mg/kg i.p. QD×5/week×2 weeks; day 31
Text: Balb/c nude female mice were subcutaneously inoculated with human-derived pancreatic cancer HPAF-II cells so as to establish a subcutaneous transplantation model of human-derived pancreatic cancer. […]
attribute-measured: Body weight (g)
Kindly provide the numeric value in g only, without the unit symbol.

Qu. Which value of Body weight has been reported for O=P1(NCCCl)OCCCN1CCCl (stereo not shown) [Ifosfamide, reference compound] in the records?
Ans. 25.9

* * *

Experiment: Safety (body weight, tolerance) in the LU11693 model
Assay type: in vivo, BALB/c nude mice
Conditions: Group 03, 10 mg/kg tail vein QW×3; day 28
attribute-measured: Body weight (g)
Express your answer in g, writing the number without its unit.

Qu. Value lookup for Body weight; key = O=[N+]([O-])c1ccc(C(OP(=O)(N2CC2)N2CC2)C(F)(F)F)cc1Oc1ccc(-c2ccc(F)cc2)c(F)c1 (stereo not shown) [AST]
Ans. 22.8
